ASSAY_SUMMARY: HILIC, Waters ACQUITY UPLC BEH Amide, 100 × 2.1 mm, 1.7 µm; A: water + 0.125% formic acid + 10 mM ammonium formate; B: 5% water + 95% acetonitrile + 0.125% formic acid + 10 mM ammonium formate; gradient (min/%B) 0/100 2/100 7.7/70 9.5/40 10.25/30 12.75/100 17/100
TEST_CONDITIONS: stereoisomer not certain
Rule: LC retention time under 5 min gives 0 (no), otherwise 1 (yes).

Exercise: Test whether the compound O=C(OC1CC2CC3CC(C1)N2CC3=O)c1c[nH]c2ccccc12 (centres undefined) records LC retention time of 5 min or higher.
Key: 0 (no)

Exercise: Test whether the compound NC(=O)NC(CCC(=O)O)C(=O)O (centres undefined) records LC retention time of 5 min or higher.
Key: 1 (yes)

Exercise: Test whether the compound COc1ccc2c3c1OC1CC(O)C=CC31CCN(C)C2 (centres undefined) records LC retention time of 5 min or higher.
Key: 0 (no)

Exercise: Test whether the compound CS(=O)CCC(N)C(=O)O (centres undefined) [Methioninesulfoxide] records LC retention time of 5 min or higher.
Key: 1 (yes)

Exercise: Test whether the compound COC(=O)CN [Methylglycinate] records LC retention time of 5 min or higher.
Key: 1 (yes)

Exercise: Test whether the compound "COc1ccc(CN2CCN(C(c3ccc(F)cc3)c3ccc(F)cc3)CC2)c(OC)c1OC" records LC retention time of 5 min or higher.
Key: 0 (no)

Exercise: Test whether the compound C[N+](C)(C)CCCCC(N)C(=O)[O-] (centres undefined) records LC retention time of 5 min or higher.
Key: 1 (yes)

Exercise: Test whether the compound CC(C)C(C)C=CC(C)C1CCC2C3=CC=C4CC(O)CCC4(C)C3CCC21C (centres undefined) records LC retention time of 5 min or higher.
Key: 0 (no)

Exercise: Test whether the compound "O=C(O)c1cc(N=Nc2ccc(S(=O)(=O)Nc3ccccn3)cc2)ccc1O" records LC retention time of 5 min or higher.
Key: 0 (no)

====

Assign LC retention time to each entry below.
ASSAY_SUMMARY: HILIC, Waters ACQUITY UPLC BEH Amide, 100 × 2.1 mm, 1.7 µm; A: water + 0.125% formic acid + 10 mM ammonium formate; B: 5% water + 95% acetonitrile + 0.125% formic acid + 10 mM ammonium formate; gradient (min/%B) 0/100 2/100 7.7/70 9.5/40 10.25/30 12.75/100 17/100
TEST_CONDITIONS: stereoisomer not certain
Answers without a unit are incomplete; give the number and then its unit.

Exercise: Need LC retention time, item CNC(C(=O)O)C(C)O (stereo not given)
Key: 7.68 min

Exercise: Need LC retention time, item CC1OC(OC2C(Oc3cc(O)c4c(c3)OC(c3ccc(O)cc3)CC4=O)OC(CO)C(O)C2O)C(O)C(O)C1O (stereo not given)
Key: 5.61 min

Exercise: Need LC retention time, item O=C(O)C(O)c1ccc(O)c(O)c1 (stereo not given) [3,4-Dihydroxymandelic acid]
Key: 2.3 min

Exercise: Need LC retention time, item NC(=O)NCCCC(N)C(=O)O (stereo not given)
Key: 8.74 min

Exercise: Need LC retention time, item Nc1ncnc2c1ncn2C1OC(CO)C(O)C1O (stereo not given)
Key: 4.77 min

Exercise: Need LC retention time, item CC(C)C1CCC(C(=O)NC(Cc2ccccc2)C(=O)O)CC1 (stereo not given) [Nateglinide]
Key: 1.3 min

Exercise: Need LC retention time, item "c1c[nH]cn1"
Key: 4.53 min

Exercise: Need LC retention time, item NC(=O)OCCCc1ccccc1 [Phenprobamate]
Key: 1.01 min

Exercise: Need LC retention time, item CCOC(=O)C1(c2ccccc2)CCN(CCC(C#N)(c2ccccc2)c2ccccc2)CC1 [Diphenoxylate]
Key: 1.41 min

Exercise: Need LC retention time, item Nc1ncnc2c1ncn2C1OC(COP(=O)(O)O)C(O)C1O (stereo not given) [Adenosine 5'-monophosphate]
Key: 8.88 min

====

ASSAY_SUMMARY: HILIC, Waters ACQUITY UPLC BEH Amide, 100 × 2.1 mm, 1.7 µm; A: water + 0.125% formic acid + 10 mM ammonium formate; B: 5% water + 95% acetonitrile + 0.125% formic acid + 10 mM ammonium formate; gradient (min/%B) 0/100 2/100 7.7/70 9.5/40 10.25/30 12.75/100 17/100
TEST_CONDITIONS: stereoisomer not certain
MEASURE_NAME: LC retention time (min)
Just the number in min, nothing appended.

Exercise: Need LC retention time, item COC1C(O)C(CO)OC1n1cnc2c(=O)[nH]cnc21 (centres undefined) [2'-O-Methylinosine]
Key: 4.06

Exercise: Need LC retention time, item CCOC(=O)C(CCc1ccccc1)NC1CCc2ccccc2N(CC(=O)O)C1=O (centres undefined) [Benazepril]
Key: 1.33

Exercise: Need LC retention time, item COc1ccc(C2CNC(=O)C2)cc1OC1CCCC1 (centres undefined) [Rolipram]
Key: 1.12

Exercise: Need LC retention time, item CN(C)CCc1c[nH]c2ccc(CC3COC(=O)N3)cc12 (centres undefined) [Zolmitriptan]
Key: 4.8

Exercise: Need LC retention time, item O=C(c1ccc(F)cc1)C1CCN(CCn2c(=S)[nH]c3ccccc3c2=O)CC1 [Altanserin]
Key: 2.64

Exercise: Need LC retention time, item O=C(O)CNC(=O)C=Cc1ccccc1 [N-Cinnamoylglycine]
Key: 2.95

Exercise: Need LC retention time, item CC(=O)OCC(N)C(=O)O (centres undefined) [O-Acetylserine]
Key: 7.67

Exercise: Need LC retention time, item O=C(O)CCCCCCC(O)CC(=O)O (centres undefined) [3-Hydroxysebacic acid]
Key: 2.55

Exercise: Need LC retention time, item CC(=O)OCC1OC(Oc2c(-c3ccc(O)c(O)c3)oc3cc(O)cc(O)c3c2=O)C(O)C(O)C1O (stereo not drawn) [Quercetin-3-O-beta-glucopyranosyl-6'-acetate]
Key: 4.61

====

ASSAY_SUMMARY: HILIC, Waters ACQUITY UPLC BEH Amide, 100 × 2.1 mm, 1.7 µm; A: water + 0.125% formic acid + 10 mM ammonium formate; B: 5% water + 95% acetonitrile + 0.125% formic acid + 10 mM ammonium formate; gradient (min/%B) 0/100 2/100 7.7/70 9.5/40 10.25/30 12.75/100 17/100
TEST_CONDITIONS: stereoisomer not certain
MEASURE_NAME: LC retention time (min)
Just the number in min, nothing appended.

Exercise: Need LC retention time, item CNC(C(=O)O)C(C)C (stereo not given)
Key: 6.99

Exercise: Need LC retention time, item "CN(C)CCCN1c2ccccc2CCc2ccc(Cl)cc21"
Key: 2.31

Exercise: Need LC retention time, item CC(CCC(=O)O)C1CCC2C3C(=O)CC4CC(=O)CCC4(C)C3CC(=O)C12C (stereo not given) [Dehydrocholic acid]
Key: 1.16

Exercise: Need LC retention time, item CC(C)C(NC(=O)C(N)CCCCN)C(=O)O (stereo not given)
Key: 9.38

Exercise: Need LC retention time, item OCCN1CC(O)C(O)C(O)C1CO (stereo not given)
Key: 8.12

====

Assign LC retention time to each entry below.
ASSAY_SUMMARY: HILIC, Waters ACQUITY UPLC BEH Amide, 100 × 2.1 mm, 1.7 µm; A: water + 0.125% formic acid + 10 mM ammonium formate; B: 5% water + 95% acetonitrile + 0.125% formic acid + 10 mM ammonium formate; gradient (min/%B) 0/100 2/100 7.7/70 9.5/40 10.25/30 12.75/100 17/100
TEST_CONDITIONS: stereoisomer not certain
Just the number in min, nothing appended.

Exercise: Need LC retention time, item Cn1cc(C2OC(CO)C(O)C2O)c(=O)[nH]c1=O (configuration not stated)
Key: 4.99

Exercise: Need LC retention time, item CCN1CCCC1CNC(=O)c1cc(S(=O)(=O)CC)c(N)cc1OC (configuration not stated) [Amisulpride]
Key: 2.76

Exercise: Need LC retention time, item Oc1ccc(C2COc3cc(O)ccc3C2)cc1 (configuration not stated)
Key: 1.19

Exercise: Need LC retention time, item C[N+](C)(C)C(Cc1c[nH]c(=S)[nH]1)C(=O)[O-] (configuration not stated)
Key: 7.74

Exercise: Need LC retention time, item CN(C)CCC(c1ccc(Br)cc1)c1ccccn1 (configuration not stated)
Key: 2.56

Exercise: Need LC retention time, item CN1CCCCC1CCN1c2ccccc2Sc2ccc(S(C)=O)cc21 (configuration not stated)
Key: 4.24

Exercise: Need LC retention time, item "O=c1[nH]cnc2nc[nH]c12"
Key: 4.99

====

ASSAY_SUMMARY: HILIC, Waters ACQUITY UPLC BEH Amide, 100 × 2.1 mm, 1.7 µm; A: water + 0.125% formic acid + 10 mM ammonium formate; B: 5% water + 95% acetonitrile + 0.125% formic acid + 10 mM ammonium formate; gradient (min/%B) 0/100 2/100 7.7/70 9.5/40 10.25/30 12.75/100 17/100
TEST_CONDITIONS: stereoisomer not certain
Output class 1 for records whose LC retention time is lower than 2 min, class 0 for records at or above 2 min.

Exercise: Hi there! Is LC retention time for CC(=O)Nc1ccn(C2OC(CO)C(O)C2O)c(=O)n1 (stereo not drawn) below 2 min, do you know?
Key: class 0

Exercise: Hi there! Is LC retention time for "CN(C)CCc1c[nH]c2ccc(Cn3cncn3)cc12" below 2 min, do you know?
Key: class 0

Exercise: Hi there! Is LC retention time for CN(Cc1cnc2nc(N)nc(N)c2n1)c1ccc(C(=O)NC(CCC(=O)O)C(=O)O)cc1 (stereo not drawn) [Methotrexate] below 2 min, do you know?
Key: class 0

Exercise: Hi there! Is LC retention time for "CN1CCN(CCCN2c3ccccc3Sc3ccc(Cl)cc32)CC1" below 2 min, do you know?
Key: class 0

Exercise: Hi there! Is LC retention time for CC1(C)OC2COC3(COS(N)(=O)=O)OC(C)(C)OC3C2O1 (stereo not drawn) [Topiramate] below 2 min, do you know?
Key: class 1

Exercise: Hi there! Is LC retention time for "O=C(O)C=Cc1cnc[nH]1" below 2 min, do you know?
Key: class 0

Exercise: Hi there! Is LC retention time for CCC(C(N)=O)N1CCCC1=O (stereo not drawn) below 2 min, do you know?
Key: class 1

Exercise: Hi there! Is LC retention time for C[n+]1cccc(C(N)=O)c1 [1-Methylnicotinamide] below 2 min, do you know?
Key: class 0

Exercise: Hi there! Is LC retention time for NC(Cc1ccc(O)cc1)C(=O)O (stereo not drawn) below 2 min, do you know?
Key: class 0

Exercise: Hi there! Is LC retention time for NC(=O)CCC(NC(=O)Cc1ccccc1)C(=O)O (stereo not drawn) below 2 min, do you know?
Key: class 0

Exercise: Hi there! Is LC retention time for "CNCCCCOc1ccccc1Cc1ccccc1" below 2 min, do you know?
Key: class 0

Exercise: Hi there! Is LC retention time for CC1CC2C3CCC4=CC(=O)C=CC4(C)C3(Cl)C(O)CC2(C)C1(O)C(=O)CO (stereo not drawn) below 2 min, do you know?
Key: class 1

The measured values listed here are drawn from the RepoRT retention time repository.
